- SUBJECT OF TEST: T1, biotin-^K48Ub4 (chemically synthesized K48-linked tetra-ubiquitin, biotin on the distal Ub) (UniProt P0CG48 1-76, isopeptide bonds from the C-terminus of each Ub to Lys48 of the next Ub; biotin at the N-terminus of the distal Ub)
- T1 construct: mature; also called Ub tetramer
- TEST DESCRIPTION: SPR (Biacore T100), biotin-Ub chain on the chip, peptide in flow; error 4
Positions of bridges follow the written chain, without caps; N, C: chain ends. Non-standard residues stand in square brackets, D forms with d. No end group written: not given here.
Entries annotated with measured pKd
In plain terms, pKd is the concentration in mol/L turned into minus its base-10 logarithm.

| BINDER | pKd |
| --- | --- |
| {CH2CO}-[dW]GWFDNLYWYVTHCG (thioether N-14, also called U2i) [Ub2i cyclic peptide] | 7.85 |

Please turn your attention to the following entry.
// query Indicate its recorded pKd; the binder in question is WWYDREYYYLGYGCG (position 1 is ClAc-D-Trp (M* of Table 2); macrocycle closed between the N-terminal chloroacetyl group and the Cys, also called U2ii) [Ub2ii cyclic peptide]
// result 7.85
